Target: RORγ (Homo sapiens)
Construct: expressed in transfected cells; host or cells: HEK 293 cells, transiently transfected
Assay: Reporter Gene Assay (RGA): nuclear receptor transactivation assay, inhibition of RORγ transactivation of a luciferase reporter in transiently transfected HEK 293 cells
Type: cell-based
Settings: read-out: RGA IC50
pIC50: −log10 of the molar value.
ENDPOINT: pIC50

Use these answered entries as a reference point.
{"columns": ["COMPOUND", "TEST RESULT"],
 "data": [
  ["CCS(=O)(=O)c1ccc(CNc2nc3cnc(-c4c(C5CC5)ncnc4C4CC4)nc3n([C@@H](C)C3CC3)c2=O)nc1", 6.54],
  ["CCS(=O)(=O)c1ccc(CNc2nc3cnc(-c4cnc(N)nc4C(C)C)nc3n(C(C)C)c2=O)nc1", 6.14],
  ["CCC(C)n1c(=O)c(NCc2ccc(S(C)(=O)=O)cc2)nc2cnc(-c3c(C)ncnc3C3CC3)nc21 (centres unmarked)", 6.51],
  ["Cc1ncnc(C2CC2)c1-c1ncc2nc(NCC3CCN(S(=O)(=O)CC#N)CC3)c(=O)n([C@@H](C)C3CC3)c2n1", 6.80],
  ["CCCc1ncnc(C)c1-c1ncc2nc(NCc3ccc(S(=O)(=O)CC)cn3)c(=O)n(C(C)C)c2n1", 6.36]
]}

A. CCS(=O)(=O)c1ccc(CNc2nc3cnc(-c4c(OC)ncnc4C4CC4)nc3n([C@H]3C[C@@H]3C(F)(F)F)c2=O)nc1 (stereo in doubt)
B. COc1ncnc(C2CC2)c1-c1ncc2nc(NCc3ccc(S(N)(=O)=O)cn3)c(=O)n(CC3CCC3)c2n1
C. CC[C@@H](C)n1c(=O)c(NCc2ncc(S(=O)(=O)CC)cn2)nc2cnc(-c3c(C4CC4)ncnc3C3CC3)nc21
D. CCS(=O)(=O)c1ccc(CNc2nc3cnc(-c4c(C)ncnc4C4CC4)nc3n(C3CCCC3=O)c2=O)nc1 (centres unmarked)
Ranking field: pIC50; order: falling. Field: ranking. Enter the labels in the order requested.
C, B, D, A
(C: 6.82, B: 6.52, D: 6.14, A: 5.87)

a. CCS(=O)(=O)c1ccc(CNc2nc3cnc(-c4c(C5CC5)ncnc4C4CC4)nc3n([C@@H](C)C(C)C)c2=O)nc1
b. CCS(=O)(=O)N1CC2(CC(CNc3nc4cnc(-c5c(OC)ncnc5C5CC5)nc4n([C@@H](C)C4CC4)c3=O)C2)C1
I'd appreciate it if you could identify which of a and b has the greater pIC50. Identify your pick by its label.
a
(a: 6.55, b: 6.33)

P. Cc1ncnc(C2CC2)c1-c1ncc2nc(NCc3ccc(S(C)(=N)=O)cc3)c(=O)n([C@@H](C)C3CCC3)c2n1 (some centres unmarked)
Q. COC(=O)c1ccc(CNc2nc3cnc(-c4c(C)ncnc4C4CC4)nc3n([C@@H](C)C3CC3)c2=O)cc1
R. CCS(=O)(=O)c1ccc(CNc2nc3cnc(-c4c(OC)ncnc4C4CC4)nc3n([C@H]3CCC[C@@H]3C#N)c2=O)nc1
Ranking field: pIC50; order: falling. Field: ranking. Enter the labels in the order requested.
P, R, Q

###

Target: RORγ (Homo sapiens)
Construct: expressed in transfected cells; host or cells: HEK 293 cells, transiently transfected
Assay: Reporter Gene Assay (RGA): nuclear receptor transactivation assay, inhibition of RORγ transactivation of a luciferase reporter in transiently transfected HEK 293 cells
Format: cell-based
Conditions: read-out: RGA IC50
ENDPOINT: IC50 (nM)

Use these answered entries as a reference point.
{"columns": ["COMPOUND", "ENDPOINT", "UNIT DESCRIPTOR", "TEST RESULT"],
 "data": [
  ["CCS(=O)(=O)c1ccc(CNc2nc3cnc(-c4c(C)nc(N)nc4C4CC4)nc3n([C@@H](C)C3CC3)c2=O)nc1 [Example 217]", "IC50", "nM", 160],
  ["CCS(=O)(=O)c1ccc(CNc2nc3cnc(-c4c(C)ncnc4C(C)C)nc3n(C(C)C)c2=O)nc1 [Example 178]", "IC50", "nM", 240],
  ["CCC(CC)n1c(=O)c(NCc2ccc(S(=O)(=O)CC)cn2)nc2cnc(-c3c(C4CC4)ncnc3C3CC3)nc21 [Example 16]", "IC50", "nM", 320],
  ["COCCS(=O)(=O)N1CCC(CNc2nc3cnc(-c4c(OC)ncnc4C4CC4)nc3n([C@@H](C)C3CC3)c2=O)CC1 [Example 169]", "IC50", "nM", 145],
  ["CCS(=O)(=O)N1CCC(CNc2nc3cnc(-c4c(OC)ncnc4C4CC4)nc3n(C(C)C)c2=O)CC1 [Example 131]", "IC50", "nM", 205]
]}

1. CNS(=O)(=O)c1ccc(CNc2nc3cnc(-c4c(C)ncnc4C4CC4)nc3n([C@@H](C)C3CC3)c2=O)cc1 [Example 135]
2. COc1cc(C#N)ccc1CNc1nc2cnc(-c3c(C)ncnc3C3CC3)nc2n([C@@H](C)C2CC2)c1=O [Example 133]
3. CCS(=O)(=O)c1ccc(CNc2nc3cnc(-c4c(C)nc(N)nc4C4CC4)nc3n([C@H](C)C3CCC3)c2=O)nc1 [Example 233]
4. CCS(=O)(=O)N1CCC(CNc2nc3cnc(-c4c(OC)ncnc4C4CC4)nc3n([C@H](C)C3CC3)c2=O)CC1 [Example 76]
5. CCS(=O)(=O)c1ccc(CNc2nc3cnc(-c4c(C5CC5)ncnc4C4CC4)nc3n([C@H](C)C(C)C)c2=O)nc1 [Example 25]
Ranking field: IC50; order: falling. Field: ranking. Enter the labels in the order requested.
4, 2, 5, 1, 3
(4: 1600 nM, 2: 1040 nM, 5: 410 nM, 1: 240 nM, 3: 155 nM)

###

Target: RORγ (Homo sapiens)
Construct: expressed in transfected cells; host or cells: HEK 293 cells, transiently transfected
Sequence (P51449 269-508 limits assumed): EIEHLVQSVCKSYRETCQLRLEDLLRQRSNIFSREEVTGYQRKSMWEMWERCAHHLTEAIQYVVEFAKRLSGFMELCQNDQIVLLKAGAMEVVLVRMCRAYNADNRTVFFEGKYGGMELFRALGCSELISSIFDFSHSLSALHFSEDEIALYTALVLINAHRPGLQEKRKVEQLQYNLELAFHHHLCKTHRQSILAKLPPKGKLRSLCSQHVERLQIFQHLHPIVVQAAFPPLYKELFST
Experiment: Reporter Gene Assay (RGA): nuclear receptor transactivation assay, inhibition of RORγ transactivation of a luciferase reporter in transiently transfected HEK 293 cells
Format: cell-based
Conditions: read-out: RGA IC50
ENDPOINT: IC50 (nM)

{"columns": ["INPUT SMILES", "ENDPOINT", "TEST RESULT"],
 "data": [
  ["CC[C@@H](C)n1c(=O)c(NCc2ncc(S(=O)(=O)CC)cn2)nc2cnc(-c3c(OC)ncnc3C3CC3)nc21", "IC50", 295],
  ["Cc1ncnc(C2CC2)c1-c1ncc2nc(NCc3ccc4c(c3)CCS4(=O)=O)c(=O)n([C@@H](C)C3CC3)c2n1", "IC50", 120],
  ["COc1ncnc(C2CC2)c1-c1ncc2nc(NCc3ccc(S(C)(=O)=O)cn3)c(=O)n(C(C)C)c2n1", "IC50", 305],
  ["CC[C@H](C)n1c(=O)c(NCc2ccc(S(N)(=O)=O)cn2)nc2cnc(-c3c(C)ncnc3C3CC3)nc21", "IC50", 195],
  ["CC[C@@H](C)n1c(=O)c(NCc2ccc(S(N)(=O)=O)cn2)nc2cnc(-c3c(C)ncnc3C3CC3)nc21", "IC50", 425],
  ["CCc1ncnc(C2CC2)c1-c1ncc2nc(NCc3ccc(S(=O)(=O)CC)cc3)c(=O)n([C@H]3CCOC3)c2n1", "IC50", 380],
  ["Cc1ncnc(C2CC2)c1-c1ncc2nc(NCc3ccc(C(=O)O)cc3)c(=O)n([C@@H](C)C3CC3)c2n1", "IC50", 855],
  ["CCS(=O)(=O)c1ccc(CNc2nc3cnc(-c4c(OC)ncnc4C4CC4)nc3n(C3(C#N)CC3)c2=O)nc1", "IC50", 4400],
  ["Cc1ncnc(C2CC2)c1-c1ncc2nc(NCc3ccc(S(N)(=O)=O)cn3)c(=O)n(CC(C)C)c2n1", "IC50", 455],
  ["CCS(=O)(=O)c1ccc(CNc2nc3cnc(-c4c(C)ncnc4C4CC4)nc3n([C@H]3CCC[C@@H]3C#N)c2=O)nc1", "IC50", 920]
]}

I. CCS(=O)(=O)c1ccc(CNc2nc3cnc(-c4c(OC)ncnc4C4CC4)nc3n(CC(C)C)c2=O)cn1
II. CC[C@@H](C)n1c(=O)c(NCc2ccc(S(N)(=O)=O)cn2)nc2cnc(-c3c(C)nc(N)nc3C3CC3)nc21
Of the pair I and II , name the member with the lesser recorded IC50. Identify your pick by its label.
I
(I: 295 nM, II: 2500 nM)

P. CCS(=O)(=O)c1ccc(CNc2nc3cnc(-c4c(C5CC5)ncnc4C4CC4)nc3n([C@H]3CCOC3)c2=O)cc1
Q. CC[C@@H](C)n1c(=O)c(NCc2ccc(S(C)(=O)=O)cc2)nc2cnc(-c3c(OC)ncnc3C3CC3)nc21
I'd appreciate it if you could identify which of P and Q has the greater IC50. Identify your pick by its label.
P
